Experiment: Solution stability assay (pH 1.0 and pH 7.4, 37° C.)
Assay type: physicochemical
Details: pH 1; conversion of the prodrug to compound 1; 37° C.; read-out: Aq. Stability half-life (pH 1/7.4) Hrs (converted)
parameter: half-life (h)
Give the value in h but do not write h after it.

Here is how some compounds turned out for half-life.
CCC(=O)OC(C)(C)CNC(=O)N[C@@H](C(=O)N1CC[C@](O)(c2ccc(Cl)cc2)C(C)(C)C1)C(C)C = 25
CC(O)C(=O)OCO[C@]1(c2ccc(Cl)cc2)CCN(C(=O)[C@H](NC(=O)NCC(C)(C)O)C(C)C)CC1(C)C (stereo partly drawn) = 36

# get_value(readout='half-life', item= CC(C)[C@H](N)C(=O)OC(C)(C)CNC(=O)N[C@@H](C(=O)N1CC[C@](O)(c2ccc(Cl)cc2)C(C)(C)C1)C(C)C ) 237

* * *

Reported solubility thermodynamic values follow for various molecules
Test: Thermodynamic equilibrium aqueous solubility assay
Type: physicochemical
Conditions: aqueous solvent, pH 7.4, aqueous buffer, thermodynamic from solid; read-out: Aq. sol., mg/mL (pH)
# unit: mg/mL | format: bare number

COC(=O)CCC(=O)OC(C)(C)CNC(=O)N[C@@H](C(=O)N1CC[C@](O)(c2ccc(Cl)cc2)C(C)(C)C1)C(C)C = 0.059

Okay, next one:
Name the recorded solubility thermodynamic for CC(=O)OCOC(=O)OC(C)(C)CNC(=O)N[C@@H](C(=O)N1CC[C@](O)(c2ccc(Cl)cc2)C(C)(C)C1)C(C)C . 0.022

* * *

Experiment: Thermodynamic equilibrium aqueous solubility assay
Type: physicochemical
Conditions: aqueous solvent, pH 6.5, aqueous buffer, thermodynamic from solid; read-out: Aq. sol., mg/mL (pH)
# solubility thermodynamic per entry
Note: unit mg/mL is implicit; provide only the numeric part.

# count of solved cases: 4
CC(O)C(=O)OCO[C@]1(c2ccc(Cl)cc2)CCN(C(=O)[C@H](NC(=O)NCC(C)(C)O)C(C)C)CC1(C)C (stereo partly shown) = 0.5
CC(C)[C@@H](NC(=O)NCC(C)(C)OC(=O)CCC(=O)O)C(=O)N1CC[C@](O)(c2ccc(Cl)cc2)C(C)(C)C1 = 0.08
CC(C)[C@@H](NC(=O)NCC(C)(C)OC(=O)OCOC(=O)/C=C/C(=O)O)C(=O)N1CC[C@](O)(c2ccc(Cl)cc2)C(C)(C)C1 = 2.2
CC(C)[C@@H](NC(=O)NCC(C)(C)OC(=O)CCOP(=O)(O)O)C(=O)N1CC[C@](O)(c2ccc(Cl)cc2)C(C)(C)C1 = 4.8

What does the data say about its solubility thermodynamic? Entry: CC(C)[C@@H](NC(=O)NCC(C)(C)OC(=O)OCOC(=O)Cc1ccc(OP(=O)(O)O)cc1)C(=O)N1CC[C@](O)(c2ccc(Cl)cc2)C(C)(C)C1 1.6

# input molecule: CC(C)[C@@H](NC(=O)NCC(C)(C)O)C(=O)N1CC[C@](OCOP(=O)(O)O)(c2ccc(Cl)cc2)C(C)(C)C1 ; wanted: its solubility thermodynamic 7.1

If you can, please state the reported solubility thermodynamic value of CC(=O)OC(C)(C)CNC(=O)N[C@@H](C(=O)N1CC[C@](O)(c2ccc(Cl)cc2)C(C)(C)C1)C(C)C . 0.03

Suppose we examine the molecule CC(C)[C@@H](NC(=O)NCC(C)(C)OC(=O)OCCN1CCOCC1)C(=O)N1CC[C@](O)(c2ccc(Cl)cc2)C(C)(C)C1 ; what solubility thermodynamic value has been reported? 0.34

Request the reported solubility thermodynamic associated with CC(C)[C@@H](NC(=O)NCC(C)(C)OC(=O)C(N)CS(=O)(=O)O)C(=O)N1CC[C@](O)(c2ccc(Cl)cc2)C(C)(C)C1 (stereo partly shown) 1.12

Would you mind telling me what solubility thermodynamic value was observed for CC(O)C(=O)OC(C)(C)CNC(=O)N[C@@H](C(=O)N1CC[C@](O)(c2ccc(Cl)cc2)C(C)(C)C1)C(C)C (stereo partly shown) ? 0.31

Report solubility thermodynamic for CC(C)[C@@H](NC(=O)NCC(C)(C)OC(=O)CN)C(=O)N1CC[C@](O)(c2ccc(Cl)cc2)C(C)(C)C1 please. 1.1

I am curious: what solubility thermodynamic value has been reported for CC(O)COC(=O)OC(C)(C)CNC(=O)N[C@@H](C(=O)N1CC[C@](O)(c2ccc(Cl)cc2)C(C)(C)C1)C(C)C (stereo partly shown) ? 0.18

// solubility thermodynamic lookup, key: CC(C)[C@@H](NC(=O)NCC(C)(C)OC(=O)CCCC(=O)O)C(=O)N1CC[C@](O)(c2ccc(Cl)cc2)C(C)(C)C1 0.317

Reference source: patent US8410139B2
